# assay_system: Recombinant human IL-1β (BioLegend 579404) (human, UniProt P01584 117-269)
# protocol_details: cell-based or functional assay
Starred links: 1 amine or outer side, 2 acyl side, 3 side chain; linkers in the order of their positions; H or OH if unused. Non-standard residues stand in square brackets, D forms with d. dProc3Bn = (2R,3S)-3-benzylpyrrolidine-2-carboxylic acid, O=C([C@H]1[C@@H](Cc2ccccc2)CCN1[*:1])[*:2]; Phe(4-(4-Ac-piperazinyl)) = CC(=O)N1CCN(c2ccc(C[C@H](N)C(=O)O)cc2)CC1; dPro(3S-(4-Br-benzyl)) = O=C(O)[C@@H]1NCC[C@@H]1Cc1ccc(Br)cc1; Trp(βS-Me,4-F) = C[C@@H](c1c[nH]c2cccc(F)c12)[C@H](N)C(=O)O; Bip(4'-COOH) = N[C@@H](Cc1ccc(-c2ccc(C(=O)O)cc2)cc1)C(=O)O; Ala(1-bicyclo(1.1.1)pentyl) = N[C@@H](CC12CC(C1)C2)C(=O)O; dPro(4R-Bzl(4-F)) = O=C(O)[C@H]1C[C@@H](Cc2ccc(F)cc2)CN1; Ala(pyrimidin-5-yl) = N[C@@H](Cc1cncnc1)C(=O)O; Phe(4-COOH) = N[C@@H](Cc1ccc(C(=O)O)cc1)C(=O)O; Pro(cis-4-F) = O=C(O)[C@@H]1C[C@H](F)CN1; 4Pal = N[C@@H](Cc1ccncc1)C(=O)O; Dab = NCC[C@H](N)C(=O)O; Aib = CC(C)(N)C(=O)O
quantity_name: MRC5 IC50 (nM)
// note: answer is a bare numeric in nM

Before answering, review these 2 worked examples.
cyclo([Phe(4-(4-Ac-piperazinyl))][Ala(1-bicyclo(1.1.1)pentyl)][Phe(4-COOH)]G[Pro(cis-4-F)][Trp(βS-Me,4-F)][Aib]EW[Aib][4Pal]Q[Dab]G[dPro(4R-Bzl(4-F))]) [SEQ ID NO: 90]	0.064
cyclo([Bip(4'-COOH)][4Pal][Phe(4-COOH)]G[Pro(cis-4-F)][Trp(βS-Me,4-F)][Aib]EW[Aib][Ala(pyrimidin-5-yl)]Q[Dab]G[dProc3Bn]) [SEQ ID NO: 29]	0.019

For the binder cyclo([Bip(4'-COOH)][4Pal][Phe(4-COOH)]G[Pro(cis-4-F)][Trp(βS-Me,4-F)][Aib]EW[Aib][Ala(pyrimidin-5-yl)]Q[Dab]G[dPro(3S-(4-Br-benzyl))]) [SEQ ID NO: 51] , give its measured MRC5 IC50 value.
0.014

Reference source: patent US20260242419A1
